Parameter Inactivation k: see the listing below.
molecular target: T1, Cav3.1 (Homo sapiens, UniProt O43497); assay: Whole-cell patch clamp of Cav3.1 dependent LVA calcium current in HEK-293/Cav3.1 cells transiently transfected with γ subunits (Example 1); assay type: cell-based; conditions: Table 2
T1 construct: expressed in transfected cells; host or cells: HEK-293, stably transfected
T1 sequence (O43497 whole entry): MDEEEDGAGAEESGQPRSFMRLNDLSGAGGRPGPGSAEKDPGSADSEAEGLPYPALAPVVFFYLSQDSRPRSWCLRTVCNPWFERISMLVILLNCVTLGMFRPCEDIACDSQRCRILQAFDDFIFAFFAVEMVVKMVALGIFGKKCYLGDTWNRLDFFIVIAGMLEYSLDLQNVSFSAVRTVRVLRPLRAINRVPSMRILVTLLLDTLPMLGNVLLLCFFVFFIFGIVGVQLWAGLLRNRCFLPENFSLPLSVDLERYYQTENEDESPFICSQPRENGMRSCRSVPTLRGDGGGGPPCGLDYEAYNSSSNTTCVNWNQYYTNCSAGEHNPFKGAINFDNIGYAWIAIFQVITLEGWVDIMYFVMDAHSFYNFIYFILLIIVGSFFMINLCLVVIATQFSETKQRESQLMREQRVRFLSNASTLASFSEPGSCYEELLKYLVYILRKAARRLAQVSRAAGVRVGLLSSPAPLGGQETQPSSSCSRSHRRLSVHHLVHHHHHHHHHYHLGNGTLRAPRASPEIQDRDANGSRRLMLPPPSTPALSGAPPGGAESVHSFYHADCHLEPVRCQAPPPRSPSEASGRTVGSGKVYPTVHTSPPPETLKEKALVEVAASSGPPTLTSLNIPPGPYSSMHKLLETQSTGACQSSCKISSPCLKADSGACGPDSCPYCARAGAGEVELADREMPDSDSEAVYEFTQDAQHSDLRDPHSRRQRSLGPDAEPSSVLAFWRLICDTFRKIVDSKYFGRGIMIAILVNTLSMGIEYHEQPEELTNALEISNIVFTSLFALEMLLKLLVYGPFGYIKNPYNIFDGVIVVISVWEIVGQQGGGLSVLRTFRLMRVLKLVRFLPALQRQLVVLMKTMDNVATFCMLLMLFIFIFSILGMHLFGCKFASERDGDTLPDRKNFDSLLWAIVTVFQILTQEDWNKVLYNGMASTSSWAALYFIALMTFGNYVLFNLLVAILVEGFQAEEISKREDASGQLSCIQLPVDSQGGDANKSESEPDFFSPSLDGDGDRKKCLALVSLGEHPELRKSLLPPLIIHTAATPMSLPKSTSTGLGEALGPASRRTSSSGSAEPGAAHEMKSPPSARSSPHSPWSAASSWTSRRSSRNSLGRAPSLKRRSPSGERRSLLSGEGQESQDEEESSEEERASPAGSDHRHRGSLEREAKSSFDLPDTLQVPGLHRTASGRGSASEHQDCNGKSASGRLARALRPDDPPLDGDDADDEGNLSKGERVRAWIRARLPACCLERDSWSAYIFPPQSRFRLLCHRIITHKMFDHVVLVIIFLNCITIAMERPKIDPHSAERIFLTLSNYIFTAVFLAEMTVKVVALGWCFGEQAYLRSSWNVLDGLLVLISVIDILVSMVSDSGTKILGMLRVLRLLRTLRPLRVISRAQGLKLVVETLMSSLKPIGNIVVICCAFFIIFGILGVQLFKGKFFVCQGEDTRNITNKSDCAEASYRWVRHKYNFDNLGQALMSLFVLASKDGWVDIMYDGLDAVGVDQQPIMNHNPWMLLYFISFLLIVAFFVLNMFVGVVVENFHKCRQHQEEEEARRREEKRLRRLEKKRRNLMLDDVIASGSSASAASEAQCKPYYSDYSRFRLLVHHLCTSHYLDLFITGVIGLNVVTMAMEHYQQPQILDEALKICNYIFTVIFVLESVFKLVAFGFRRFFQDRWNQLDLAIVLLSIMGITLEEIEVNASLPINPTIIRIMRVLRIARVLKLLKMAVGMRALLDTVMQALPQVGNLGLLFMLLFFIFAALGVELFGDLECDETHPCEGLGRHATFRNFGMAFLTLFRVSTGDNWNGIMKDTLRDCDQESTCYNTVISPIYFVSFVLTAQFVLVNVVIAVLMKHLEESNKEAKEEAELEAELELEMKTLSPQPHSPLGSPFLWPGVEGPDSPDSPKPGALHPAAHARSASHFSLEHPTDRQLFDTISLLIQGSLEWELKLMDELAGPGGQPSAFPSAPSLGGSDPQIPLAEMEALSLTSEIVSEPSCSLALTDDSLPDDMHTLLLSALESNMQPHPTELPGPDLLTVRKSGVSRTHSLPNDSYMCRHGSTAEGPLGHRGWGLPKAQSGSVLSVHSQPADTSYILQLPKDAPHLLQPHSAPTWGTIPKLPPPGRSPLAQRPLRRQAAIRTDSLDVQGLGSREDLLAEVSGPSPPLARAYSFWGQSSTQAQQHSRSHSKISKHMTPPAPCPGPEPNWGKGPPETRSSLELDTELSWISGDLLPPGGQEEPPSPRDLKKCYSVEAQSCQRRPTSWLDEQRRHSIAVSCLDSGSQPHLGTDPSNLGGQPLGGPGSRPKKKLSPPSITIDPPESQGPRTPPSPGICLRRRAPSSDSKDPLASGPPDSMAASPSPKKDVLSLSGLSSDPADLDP

- MOLECULE: "γ7: rat calcium channel γ7 subunit (AF361345), SEQ ID NO:50 (protein, listed as Rattus norvegicus) MSHCSSRALTLLSSVFGACGLLLVGIAVSTDYWLYMEEGTVLPQNQTTEVKMALHAGLWRVCFFAGREKGRCVASEYFLEPEINLVTENTENILKTVRTATPFPMVSLFLVFTAFVISNIGHIRPQRTILAFVSGIFFILSGLSLVVGLVLYISSINDEVMNRPSSSEQYFHYRYGWSFAFAASSFLLKEGAGVMSVYLFTKRYAEEEMYRPHPAFYRPRLSDCSDYSGQFLQPEAWRRGRSPSDISSDVSIQMTQNYPPAIKYPDHLHISTSPC"
  VALUE_REPORTED: "6.0 ± 0.1 (n = 10)"
- MOLECULE: "γ6L: rat calcium channel γ6 subunit, long isoform (AF361343), SEQ ID NO:48 (protein, listed as Rattus norvegicus) MMWSNFFMQEEDRRRTAVGRRRAQEQQNLGLTPEREGKIKLGLLVAIVGATLAVLAVGTEFWVELNTYKTNGSAVCEAAHLGLWKVCIKRLWQADVPAGRETCGPAELPGEANCTYFKFFTTGENAHIFQRTTKKEVNLAAAVIAVLGLTAMALGCLCVIMVLSKGAEFLLRLGAVCFGLSGLLLFVSLEVFRHSVRALLQGVNPETPPAPRLAYEYSWSLGCGVGAGLILLLGGVCFLLLTLPSWPWRSLCPKRGGPTA"
  VALUE_REPORTED: "5.4 ± 0.3 (n = 6)"
- MOLECULE: "γ6S: rat calcium channel γ6 subunit, short isoform (AF361344), SEQ ID NO:49 (protein, listed as Rattus norvegicus) MMWSNFFMQEEDRRRTAVGRRRAQEQQNLGLTPEREGKIKLGLLVAIVGATLAVLAVGTEFWVELNTYKTNGSAVCEAAHLGLWKVCIKRLWQADVPAGRETCGPAELPGEANCTYFKFFTTGENAHIFQRTTKKGLLLFVSLEVFRHSVRALLQGVNPETPPAPRLAYEYSWSLGCGVGAGLILLLGGVCFLLLTLPSWPWRSLCPKRGGPTA"
  VALUE_REPORTED: "5.9 ± 0.7 (n = 3)"

Let us examine a further case.
The molecule listed as γ4: rat calcium channel γ4 subunit (AF361341), SEQ ID NO:47 (protein, listed as Rattus norvegicus) MVRCDRGLQMLLTTAGAFAAFSLMAIAIGTDYWLYSSAHICNGTNLTMDDGPPPRRARGDLTHSGLWRVCCIEGIYKGHCFRINHFPEDNDYDHDSSEYLLRIVRASSVFPILSTILLLLGGLCIGAGRIYSRKNNIVLSAGILFVAAGLSNIIGIIVYISSNTGDPSDKRDEDKKNHYNYGWSFYFGALSFIVAETVGVLAVNIYIEKNKELRFKTKREFLKASSSSPYSRMPSYRYRRRRSRSSSRSTEASPSRDASPVGLKITGAIPMGELSMYTLSREPLKVTTAASYSPDQDAGFLQMHDFFQQDLKEGFHVSMLNRRTTPV has a reported Inactivation k of 6.1 ± 0.2 (n = 7)
